# TARGET: human relaxin family peptide receptor 2 (RXFP2) (human) (UniProt Q8WXD0)
# Sequence (Q8WXD0 whole entry): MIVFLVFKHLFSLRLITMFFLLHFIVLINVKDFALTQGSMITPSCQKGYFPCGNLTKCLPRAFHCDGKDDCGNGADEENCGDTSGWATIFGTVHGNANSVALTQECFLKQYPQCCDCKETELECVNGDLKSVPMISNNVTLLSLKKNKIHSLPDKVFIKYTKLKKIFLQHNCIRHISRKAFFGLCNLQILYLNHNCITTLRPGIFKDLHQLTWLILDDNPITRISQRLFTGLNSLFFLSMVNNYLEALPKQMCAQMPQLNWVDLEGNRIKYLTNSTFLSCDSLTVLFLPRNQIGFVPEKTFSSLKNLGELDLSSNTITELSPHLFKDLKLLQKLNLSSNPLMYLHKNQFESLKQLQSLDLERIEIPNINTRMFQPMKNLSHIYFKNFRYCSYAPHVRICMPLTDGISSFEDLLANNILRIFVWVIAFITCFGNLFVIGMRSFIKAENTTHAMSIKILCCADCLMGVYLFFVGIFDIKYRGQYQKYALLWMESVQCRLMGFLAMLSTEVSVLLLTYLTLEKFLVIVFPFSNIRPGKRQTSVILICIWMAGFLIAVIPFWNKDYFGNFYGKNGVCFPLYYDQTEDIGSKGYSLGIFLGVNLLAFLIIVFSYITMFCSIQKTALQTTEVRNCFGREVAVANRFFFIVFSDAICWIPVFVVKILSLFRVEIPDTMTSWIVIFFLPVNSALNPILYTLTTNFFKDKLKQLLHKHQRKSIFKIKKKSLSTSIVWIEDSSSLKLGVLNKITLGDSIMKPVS
PROPERTY_LABEL: IC50, INSL3 (EC80)-stimulated cAMP in HEK293 stably expressing human RXFP2 (nM)
Numbers only, in nM.

Exam item: Which IC50, INSL3 (EC80)-stimulated cAMP in HEK293 stably expressing human RXFP2 is listed for RXFP2 mAb 1F2 (antibody, V domains shown) VH: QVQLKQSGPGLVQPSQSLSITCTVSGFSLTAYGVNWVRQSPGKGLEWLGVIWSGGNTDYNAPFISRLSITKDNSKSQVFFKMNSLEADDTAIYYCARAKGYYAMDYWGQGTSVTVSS VL: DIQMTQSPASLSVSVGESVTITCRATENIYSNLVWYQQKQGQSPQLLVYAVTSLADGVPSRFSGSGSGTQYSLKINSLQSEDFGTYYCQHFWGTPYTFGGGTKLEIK ?
Marked response: 405
